binders and their reported Kd
assayed-target: T1, Hla
T1 chain: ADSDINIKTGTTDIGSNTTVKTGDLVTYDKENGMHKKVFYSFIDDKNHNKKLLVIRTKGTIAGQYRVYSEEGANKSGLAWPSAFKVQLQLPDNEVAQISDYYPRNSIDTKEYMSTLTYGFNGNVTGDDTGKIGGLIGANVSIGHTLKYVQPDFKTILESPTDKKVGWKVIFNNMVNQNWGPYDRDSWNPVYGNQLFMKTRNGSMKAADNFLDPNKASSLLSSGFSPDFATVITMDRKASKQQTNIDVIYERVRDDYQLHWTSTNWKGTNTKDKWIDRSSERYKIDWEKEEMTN

Example binders with recorded Kd:
binder: AB-28-10 (antibody, V domains shown) VH: QVQLQESGPGLVKPSETLSLTCAVSGYSISSGMGWGWIRQPPGKGLEWIGSIDQRGSTYYNPSLKSRVTISVDTSKNQFSLKLSSVTAADTAVYYCARDAGHAVDMDVWGKGTTVTVSS VL: DIQMTQSPSSVSASVGDRVTITCRASQGISRWLAWYQQKPGKAPKLLIYAASSLQSGVPSRFSGSGSGTDFTLTISSLQPEDFATYYCQQGYVFPLTFGGGTKVEIK
Kd: < 0.002 nM

binder: AB-28-9 (antibody, V domains shown) VH: EVQLQESGPGLVRPSETLSLTCAVSGYSISSGMGWGWIRQPPGKGLEWIGSIDQRGSTYYNPSLKSRVTISVDTSKNQFSLKLSSVTAADTAVYYCARDAGHAVDMDVWGKGTTVTVSS VL: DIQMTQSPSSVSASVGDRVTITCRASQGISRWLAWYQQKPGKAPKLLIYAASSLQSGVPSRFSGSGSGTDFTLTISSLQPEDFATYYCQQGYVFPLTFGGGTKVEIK
Kd: < 0.002 nM

// AB-28-4 (antibody, V domains shown) VH: QVQLQESGPGLVKPSETLSLTCAVSGYPISSGMGWGWIRQPPGKGLEWIGRIDQRGSTYYNPSLKSRATISVDTSKNQFSLKLSSVTAADTAVYYCARDAGHGVDMDVWGKGTTVTVSS VL: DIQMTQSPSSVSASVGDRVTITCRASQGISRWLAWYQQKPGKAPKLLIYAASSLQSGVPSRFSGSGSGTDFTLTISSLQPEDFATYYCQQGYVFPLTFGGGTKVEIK : Kd value = 0.023 nM
